assayed.target: Prostaglandin E2 receptor EP2 subtype (Homo sapiens) (UniProt P43116)
Sequence (P43116 whole entry, looked up): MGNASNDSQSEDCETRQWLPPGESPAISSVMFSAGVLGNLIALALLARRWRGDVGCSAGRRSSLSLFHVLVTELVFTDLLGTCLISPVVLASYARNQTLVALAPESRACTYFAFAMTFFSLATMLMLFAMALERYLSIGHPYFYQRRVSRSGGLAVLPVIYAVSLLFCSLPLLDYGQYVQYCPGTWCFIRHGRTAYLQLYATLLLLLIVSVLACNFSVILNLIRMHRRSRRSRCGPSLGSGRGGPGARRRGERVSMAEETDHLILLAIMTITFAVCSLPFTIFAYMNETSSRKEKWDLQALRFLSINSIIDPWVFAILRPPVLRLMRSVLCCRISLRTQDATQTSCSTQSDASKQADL
protocol.details: EP2 receptor modulators, dose response, cell-based, human EP2, PGE2 EC50 shift (AID 1421)
experimental.conditions: EP2-expressing cells, PGE2 EC50 shift by compound; measured here: PGE2 EC50 at 6.7 uM compound
Just a reminder that ties go to 0.0: only PGE2 EC50 with compound strictly below 1 nM counts as 1.0.

Input: # check: PGE2 EC50 with compound < 1 nM for `CCOC(=O)c1c(NC(=O)c2ccc(Br)o2)sc(C)c1CC`
Output: 1.0

Input: In the record for `COc1ccc(Nc2nc(-c3cc4cccc(OC)c4oc3=O)cs2)cc1` , is PGE2 EC50 with compound less than 1 nM?
Output: 0.0

Input: Item `S=c1nc[nH]c2c1[nH]c1ccccc12` : PGE2 EC50 with compound beneath 1 nM, strictly?
Output: 0.0

Input: Answer whether the molecule `CCOC(=O)Cc1csc(NC(NC(=O)CC)(C(F)(F)F)C(F)(F)F)n1` has PGE2 EC50 with compound strictly less than 1 nM
Output: 0.0

Input: Take the molecule COC(=O)c1ccccc1NC(=O)C(C)Oc1ccccc1 (stereo unspecified) and say whether its PGE2 EC50 with compound is less than 1 nM.
Output: 1.0

Input: Field: below-cutoff. Rule: recorded PGE2 EC50 with compound strictly less than 1 nM. Subject: `O=C(Nc1ccccc1N1CCCCC1)c1ccccc1F`
Output: 1.0

Input: Dear colleague, could you confirm whether PGE2 EC50 with compound of `CNC[C@H](O)c1ccc(O)c(O)c1` falls below 1 nM? Thanks.
Output: 1.0

Input: Is PGE2 EC50 with compound strictly under 1 nM for the entry `CC1=Nc2ccccc2/C1=C/c1sc(=S)n(-c2cccc(C(=O)O)c2)c1O` ?
Output: 1.0

Input: Below 1 nM on PGE2 EC50 with compound? Entry `O=C(COc1ccccc1)Nc1ccccc1Oc1ccccc1`
Output: 0.0

Input: I'd appreciate it if you could check whether `CCOC(=O)c1c(-c2ccc(C)cc2)csc1NC(=O)CCN1CCOCC1` has PGE2 EC50 with compound smaller than 1 nM.
Output: 0.0

Input: Input `CC(C)(Sc1ccc(CCN(CCCCC2CCCCC2)C(=O)NC2CCCCC2)cc1)C(=O)O` ; condition: PGE2 EC50 with compound strictly below 1 nM. Does it hold?
Output: 0.0

Input: # strict comparison: is reported PGE2 EC50 with compound < 1 nM? input = `CCCCNc1nc(N(C)c2ccccc2)nc(-n2ccnc2)n1`
Output: 0.0

Input: Hello, I'm reviewing records and need to know if PGE2 EC50 with compound of `COc1ccc(Cc2n[nH]c(=S)n2Cc2ccccc2)cc1Cl` is below 1 nM. Could you check?
Output: 0.0

Input: Strictly below 1 nM: is that where PGE2 EC50 with compound of `N#Cc1sc2nc(C3CC3)cc(-c3ccccc3)c2c1N` sits?
Output: 1.0

Input: Problem: For the molecule `C[C@H](CN(C)C)C(=O)c1ccccc1C(=O)O` , is PGE2 EC50 with compound under 1 nM?
Output: 0.0

Input: Take the molecule `Cc1ccc(C(=O)c2coc3ccc(OCC(=O)O)cc23)cc1` and say whether its PGE2 EC50 with compound is less than 1 nM.
Output: 0.0

Input: Below 1 nM on PGE2 EC50 with compound? Entry `CCC1(CC)Cc2ccccc2-c2nc(NCCO)[nH]c(=O)c21`
Output: 0.0

Input: is_below(PGE2 EC50 with compound, 1 nM) for `O=C1CCCc2ccccc2N1Cc1cccc(Cl)c1` ?
Output: 0.0

Input: Input `COc1ccc2c(COC(=O)c3n[nH]c4ccccc34)cc(=O)oc2c1` ; condition: PGE2 EC50 with compound strictly below 1 nM. Does it hold?
Output: 0.0

Input: Lab note: PGE2 EC50 with compound threshold 1 nM. Does this molecule come in strictly under it? `Cc1ccc(-n2c(SCC(N)=O)nc3c(c2=O)C2(CCCC2)Cc2ccccc2-3)cc1`
Output: 0.0

Input: PGE2 EC50 with compound under 1 nM? Item: `Cc1cc(NC(=O)C2=C(O)c3ccccc3S(=O)(=O)N2C)no1`
Output: 0.0

Input: Confirm or reject: PGE2 EC50 with compound of `CCOC(=O)c1c(NC(=O)CN(CC)CC)sc2c1CCN(C(=O)OCC)C2` lies strictly below 1 nM
Output: 0.0

Input: Problem: For the molecule `COc1cccc2[nH]c3c(N4CCCCC4)ncnc3c12` , is PGE2 EC50 with compound under 1 nM?
Output: 1.0

Input: Given Cc1ccc(C2CC2c2n[nH]c(=S)n2-c2ccc(Cl)cc2)cc1 (stereo unspecified) , is recorded PGE2 EC50 with compound strictly lower than 1 nM?
Output: 0.0

Input: Regarding `CCOC(=O)c1cc(CC)sc1NC(=O)c1ccc2c(c1)OCCO2` , kindly confirm whether its PGE2 EC50 with compound is beneath 1 nM.
Output: 1.0

Input: PGE2 EC50 with compound strictly < 1 nM for this molecule? `Cc1nn2c(N3CCN(C(=O)c4ccco4)CC3)cc(C(C)(C)C)nc2c1-c1ccccc1`
Output: 0.0

Input: Is it true that PGE2 EC50 with compound reported for Cc1cc(C)cc(OC2CCCCC2NS(=O)(=O)c2ccccc2)c1 (stereo unspecified) is less than 1 nM?
Output: 0.0

Input: Here's an entry: Cc1ccc(Cl)cc1NC(=S)N(Cc1ccco1)C(C)c1cccs1 (stereo unspecified) . Is its PGE2 EC50 with compound below 1 nM?
Output: 0.0

Input: Record CC1CC(C)CN(CC(=O)NC(c2ccccc2)c2ccccc2)C1 (stereo unspecified) : is its PGE2 EC50 with compound strictly below 1 nM?
Output: 0.0

Input: For this molecule, is PGE2 EC50 with compound lower than 1 nM? `O=C(O)c1nn(CC(=O)N(C2CCCCC2)C2CCCCC2)c(=O)c2ccccc12`
Output: 0.0

Input: # TODO verify PGE2 EC50 with compound < 1 nM strictly for this molecule: `Cc1noc(C)c1CSc1nc2ccccc2c(=O)n1-c1ccc(F)cc1F`
Output: 0.0

Input: Given the entry COC(=O)C(C)Sc1ncnc2c1nnn2-c1ccc(F)cc1 (stereo unspecified) , would its reported PGE2 EC50 with compound be below 1 nM?
Output: 0.0

Input: Determine whether this molecule shows PGE2 EC50 with compound lower than 1 nM (ties excluded): `Cc1noc(C)c1CSc1ncnc2sc(C)c(C)c12`
Output: 0.0

Input: Please determine if `CCOC(=O)Cn1c(=S)[nH]c2c(oc3ccc(Cl)cc32)c1=O` is below 1 nM in terms of PGE2 EC50 with compound.
Output: 0.0

Input: Take the molecule `C/C(Cl)=C/Cn1c(SC(C)C)nc2c1c(=O)[nH]c(=O)n2C` and say whether its PGE2 EC50 with compound is less than 1 nM.
Output: 1.0

Input: Take the molecule `COc1cccc(/C=N/c2oc(-c3ccccc3)cc2C#N)c1O` and say whether its PGE2 EC50 with compound is less than 1 nM.
Output: 0.0

Input: Quick check: PGE2 EC50 with compound of `Cc1ccc(S(=O)(=O)N(CC(=O)N=Nc2c(O)[nH]c3ccccc23)c2ccc(C)c(C)c2)cc1` under 1 nM?
Output: 0.0

Input: Does the reported PGE2 EC50 with compound of the following molecule sit strictly below 1 nM? COc1ccc(-c2c(C(C)=O)c(C)nc3sc4c(c23)NC(c2ccccc2)NC4=O)cc1 (stereo unspecified)
Output: 0.0

Input: Does the reported PGE2 EC50 with compound of the following molecule sit strictly below 1 nM? `O=C(c1cc2sccc2n1Cc1ccc(F)cc1)N1CCCc2ccccc21`
Output: 0.0

Input: Dear reviewer, please state whether `S=c1[nH]nc(Cc2ccccc2)n1Cc1ccco1` has PGE2 EC50 with compound strictly beneath 1 nM.
Output: 0.0

Input: Identify whether the molecule COc1ccc(C2=NN(C(=O)c3cccs3)C(O)(C(F)(F)F)C2)cc1 (stereo unspecified) records PGE2 EC50 with compound below 1 nM.
Output: 0.0

Input: Given the entry `c1ccc(Oc2nc3ccccc3n3cccc23)cc1` , would its reported PGE2 EC50 with compound be below 1 nM?
Output: 1.0

Input: Regarding `CCSc1nc2c(c(=O)[nH]c(=O)n2C)n1Cc1ccc(Cl)cc1` , kindly confirm whether its PGE2 EC50 with compound is beneath 1 nM.
Output: 0.0
